In this section we review reported pIC50 values for a set of compounds.
- Tested on: MV4-11
- assayText: Antiproliferative activity against human MV4-11 cells after 72 hrs by luminescent cell viability assay
- Assay type: functional, cell-based
- experimentalSetup: MV4-11, 72 h
// field semantics: pIC50 = negative decimal log of concentration (mol/L)

Example cases with answers are listed next.
compoundString: C=CS(=O)(=O)NC/C=C/c1cc(OC)cc(O)c1C(=O)OCc1ccc(Br)cc1
experimentalSystem: MV4-11
pIC50: 5.22
--
compoundString: CC(C)OC(=O)c1c(O)cc(OCCCN2CCOCC2)cc1/C=C/CN1C(=O)C=CC1=O
experimentalSystem: MV4-11
pIC50: 5.72
--
compoundString: C=CS(=O)(=O)NCCCc1cc(OCCN2CCOCC2)cc(O)c1C(=O)OC(C)C
experimentalSystem: MV4-11
pIC50: 5.12
--
compoundString: CC(C)OC(=O)c1c(O)cc(OCCN2CCOCC2)cc1CCCN1C(=O)C=CC1=O
experimentalSystem: MV4-11
pIC50: 5.45
--
compoundString: COc1cc(O)c(C(=O)OCc2ccc(F)cc2)c(/C=C/CN2C(=O)C=CC2=O)c1
experimentalSystem: MV4-11
pIC50: 5.84

Please find the next compound below.
Q: Query: pIC50; subject: `CCN(CC)C/C=C/C(=O)NC/C=C/c1cc(OCCc2ccc(F)cc2)cc(O)c1C(=O)OC(C)C`
Ans: 5.39
